The reported numbers originate from patent US20260242478A1.

target: T1, PSMA Fab (biotinylated (site not stated)); experiment: clonal phage ELISA; biotinylated PSMA Fab on neutravidin plate, wells pre-incubated with PSMA antigen as competitor, anti-M13-HRP detection
T1 construct: also called Anti-PSMA Fab; 006 PSMA Fab
The binders listed here are annotated with their Phage binding ELISA signal, Anti-PSMA Fab.
No unit in the answer, please; the number alone is enough.

Query block: Sample AGHWCIPMWMCQED [Phage-2679] — what was its Phage binding ELISA signal, Anti-PSMA Fab?
Result block: 0.0526

Query block: Could you tell me which Phage binding ELISA signal, Anti-PSMA Fab is on file for DWKWCTPAWMCTQT [Phage-2673] ?
Result block: 0.0698

Query block: Would you mind telling me what Phage binding ELISA signal, Anti-PSMA Fab value was observed for WDNWCTPSWMCSEL [Phage-2671] ?
Result block: 0.0853

Query block: Give the measured Phage binding ELISA signal, Anti-PSMA Fab of QEKWCIPEWMCSVR [Phage-2672] .
Result block: 0.0823
